# assayed.target: Induced myeloid leukemia cell differentiation protein Mcl-1/Bcl-2-like protein 11 (Homo sapiens)
# Sequence (O43521 whole entry, one chain of several, further chain): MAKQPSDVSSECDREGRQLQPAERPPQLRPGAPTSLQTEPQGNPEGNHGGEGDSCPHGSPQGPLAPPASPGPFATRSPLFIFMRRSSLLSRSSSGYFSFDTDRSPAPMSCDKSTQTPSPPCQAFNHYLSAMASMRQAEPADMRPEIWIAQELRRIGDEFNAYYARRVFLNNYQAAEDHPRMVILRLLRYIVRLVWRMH
# method.description: Inhibition of N-terminal GST-tagged human recombinant Mcl-1 expressed in Escherichia coli /human Bim measured for 60 mins by TR-FRET based LanthaScreen Eu-Kinase binding assay
pIC50: −log10 of the molar value.
measure.name: pIC50

C[C@H]1CCN(C)C(=O)C[C@@H](Cc2ccc(Cl)c(Cl)c2)NC(=O)CN2C(=O)[C@H](CCc3ccccc32)NC(=O)C[C@H](Cc2ccc(Cl)cc2)N1    7.32
O=C1C[C@@H](Cc2ccc(Cl)c(Cl)c2)NC(=O)CN2C(=O)[C@H](CCc3ccccc32)NC(=O)C[C@H](Cc2ccc(Cl)cc2)NCCCN1    5.28
CN1CCCCN[C@@H](Cc2ccc(Cl)cc2)CC(=O)N[C@H]2CCc3ccccc3N(CC(=O)N[C@H](Cc3ccc(Cl)c(Cl)c3)CC1=O)C2=O    6.91

* * *

# Test system: MV4-11
# method.description: Induction of apoptosis in human MV4-11 cells assessed as increase in caspase 3/7 activity measured after 6 hrs by Caspase-Glo 3/7 reagent based microplate reader analysis
# Type: functional, cell-based
# measurement.setup: MV4-11, 6 h
pEC50: −log10 of the molar value.
measure.name: pEC50

CN1CCCN[C@@H](Cc2ccc(S(C)(=O)=O)cc2)CC(=O)N[C@H]2CCc3ccccc3N(CC(=O)N[C@H](Cc3ccc(Cl)c(CCc4ccccc4)c3)CC1=O)C2=O    5.42

* * *

# assayed.target: Induced myeloid leukemia cell differentiation protein Mcl-1 (Homo sapiens, UniProt Q07820)
# Sequence (Q07820 whole entry): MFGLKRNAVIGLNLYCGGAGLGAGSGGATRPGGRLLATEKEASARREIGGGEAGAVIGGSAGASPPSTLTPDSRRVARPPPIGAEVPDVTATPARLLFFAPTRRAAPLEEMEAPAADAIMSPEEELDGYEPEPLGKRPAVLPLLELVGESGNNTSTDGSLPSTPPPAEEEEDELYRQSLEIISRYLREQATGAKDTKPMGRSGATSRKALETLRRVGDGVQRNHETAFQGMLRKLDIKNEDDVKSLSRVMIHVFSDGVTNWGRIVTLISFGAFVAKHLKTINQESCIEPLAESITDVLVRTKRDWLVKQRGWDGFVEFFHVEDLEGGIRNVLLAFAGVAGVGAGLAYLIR
# method.description: Binding affinity to N-terminal his6-tagged human recombinant Mcl-1 expressed in Escherichia coli assessed as binding constant (Koff) by SPR analysis
measure.name: K

CN1CCCN[C@@H](Cc2ccc(Cl)cc2)CC(=O)N[C@H]2CCc3ccccc3N(CC(=O)N[C@H](Cc3ccc(Cl)c(-c4cc5ccccc5o4)c3)CC1=O)C2=O    0.314 s⁻¹
CN1CCCN[C@@H](Cc2ccc(S(C)(=O)=O)cc2)CC(=O)N[C@H]2CCc3ccccc3N(CC(=O)N[C@H](Cc3ccc(Cl)c(-c4ccc5ccccc5c4)c3)CC1=O)C2=O    0.213 s⁻¹
CN1CCCCN[C@@H](Cc2ccc(Cl)cc2)CC(=O)N[C@H]2CCc3ccccc3N(CC(=O)N[C@H](Cc3ccc(Cl)c(Cl)c3)CC1=O)C2=O    0.082 s⁻¹
CN1CCCN[C@@H](Cc2ccc(Cl)cc2)CC(=O)N[C@H]2CCc3ccccc3N(CC(=O)N[C@H](Cc3ccc(Cl)c(Cl)c3)CC1=O)C2=O    0.212 s⁻¹
CN1CCCN[C@@H](Cc2ccc(Cl)cc2)CC(=O)N[C@H]2CCc3ccccc3N(CC(=O)N[C@H](Cc3ccc(Cl)c(CCc4ccccc4)c3)CC1=O)C2=O    0.073 s⁻¹
CN1CCCN[C@@H](Cc2ccc(S(C)(=O)=O)cc2)CC(=O)N[C@H]2CCc3ccccc3N(CC(=O)N[C@H](Cc3ccc(Cl)c(CCc4ccccc4)c3)CC1=O)C2=O    0.066 s⁻¹
CN1CCCN[C@@H](Cc2ccc(S(C)(=N)=O)cc2)CC(=O)N[C@H]2CCc3ccccc3N(CC(=O)N[C@H](Cc3ccc(Cl)c(Cl)c3)CC1=O)C2=O (some centres undefined)    0.476 s⁻¹
CN1CCCN[C@@H](Cc2ccc(S(C)(=O)=O)cc2)CC(=O)N[C@H]2CCc3ccccc3N(CC(=O)N[C@H](Cc3ccc(Cl)c(-c4cc5ccccc5o4)c3)CC1=O)C2=O    0.336 s⁻¹
O=C1C[C@@H](Cc2ccc(Cl)c(Cl)c2)NC(=O)CN2C(=O)[C@H](CCc3ccccc32)NC(=O)C[C@H](Cc2ccc(Cl)cc2)NCCCN1    0.158 s⁻¹

* * *

# assayed.target: Induced myeloid leukemia cell differentiation protein Mcl-1 (Homo sapiens)
# method.description: Binding affinity to N-terminal his6-tagged human recombinant Mcl-1 expressed in Escherichia coli assessed as binding constant (Kon) by SPR analysis
measure.name: K

CN1CCCN[C@@H](Cc2ccc(S(C)(=N)=O)cc2)CC(=O)N[C@H]2CCc3ccccc3N(CC(=O)N[C@H](Cc3ccc(Cl)c(Cl)c3)CC1=O)C2=O (some centres undefined)    10.2 10^5/M.s
CN1CCCN[C@@H](Cc2ccc(Cl)cc2)CC(=O)N[C@H]2CCc3ccccc3N(CC(=O)N[C@H](Cc3ccc(Cl)c(-c4cc5ccccc5o4)c3)CC1=O)C2=O    1.6 10^5/M.s
CN1CCCN[C@@H](Cc2ccc(S(C)(=O)=O)cc2)CC(=O)N[C@H]2CCc3ccccc3N(CC(=O)N[C@H](Cc3ccc(Cl)c(-c4cc5ccccc5o4)c3)CC1=O)C2=O    9.5 10^5/M.s
CN1CCCN[C@@H](Cc2ccc(Cl)cc2)CC(=O)N[C@H]2CCc3ccccc3N(CC(=O)N[C@H](Cc3ccc(Cl)c(CCc4ccccc4)c3)CC1=O)C2=O    3.7 10^5/M.s
CN1CCCN[C@@H](Cc2ccc(S(C)(=O)=O)cc2)CC(=O)N[C@H]2CCc3ccccc3N(CC(=O)N[C@H](Cc3ccc(Cl)c(CCc4ccccc4)c3)CC1=O)C2=O    33 10^5/M.s
CN1CCCN[C@@H](Cc2ccc(S(C)(=O)=O)cc2)CC(=O)N[C@H]2CCc3ccccc3N(CC(=O)N[C@H](Cc3ccc(Cl)c(-c4ccc5ccccc5c4)c3)CC1=O)C2=O    6.6 10^5/M.s
O=C1C[C@@H](Cc2ccc(Cl)c(Cl)c2)NC(=O)CN2C(=O)[C@H](CCc3ccccc32)NC(=O)C[C@H](Cc2ccc(Cl)cc2)NCCCN1    0.53 10^5/M.s
CN1CCCN[C@@H](Cc2ccc(Cl)cc2)CC(=O)N[C@H]2CCc3ccccc3N(CC(=O)N[C@H](Cc3ccc(Cl)c(Cl)c3)CC1=O)C2=O    7.9 10^5/M.s
CN1CCCCN[C@@H](Cc2ccc(Cl)cc2)CC(=O)N[C@H]2CCc3ccccc3N(CC(=O)N[C@H](Cc3ccc(Cl)c(Cl)c3)CC1=O)C2=O    2.9 10^5/M.s

* * *

# assayed.target: Induced myeloid leukemia cell differentiation protein Mcl-1 (Homo sapiens, UniProt Q07820)
# method.description: Binding affinity to N-terminal his6-tagged human recombinant Mcl-1 expressed in Escherichia coli assessed as dissociation constant by SPR analysis
pKd: −log10 of the molar value.
measure.name: pKd

CN1CCCN[C@@H](Cc2ccc(S(C)(=O)=O)cc2)CC(=O)N[C@H]2CCc3ccccc3N(CC(=O)N[C@H](Cc3ccc(Cl)c(-c4cc5ccccc5o4)c3)CC1=O)C2=O    6.33
O=C1C[C@@H](Cc2ccc(Cl)c(Cl)c2)NC(=O)CN2C(=O)[C@H](CCc3ccccc32)NC(=O)C[C@H](Cc2ccc(Cl)cc2)NCCCN1    5.35
CN1CCCCN[C@@H](Cc2ccc(Cl)cc2)CC(=O)N[C@H]2CCc3ccccc3N(CC(=O)N[C@H](Cc3ccc(Cl)c(Cl)c3)CC1=O)C2=O    6.54
CN1CCCN[C@@H](Cc2ccc(S(C)(=O)=O)cc2)CC(=O)N[C@H]2CCc3ccccc3N(CC(=O)N[C@H](Cc3ccc(Cl)c(Cl)c3)CC1=O)C2=O    7.00
CN1CCCN[C@@H](Cc2ccc(Cl)cc2)CC(=O)N[C@H]2CCc3ccccc3N(CC(=O)N[C@H](Cc3ccc(Cl)c(-c4cc5ccccc5o4)c3)CC1=O)C2=O    5.44
CN1CCCN[C@@H](Cc2ccc(S(C)(=O)=O)cc2)CC(=O)N[C@H]2CCc3ccccc3N(CC(=O)N[C@H](Cc3ccc(Cl)c(CCc4ccccc4)c3)CC1=O)C2=O    7.70
CN1CCCN[C@@H](Cc2ccc(S(C)(=O)=O)cc2)CC(=O)N[C@H]2CCc3ccccc3N(CC(=O)N[C@H](Cc3ccc(Cl)c(-c4ccc5ccccc5c4)c3)CC1=O)C2=O    6.54
C[C@H]1CCN(C)C(=O)C[C@@H](Cc2ccc(Cl)c(Cl)c2)NC(=O)CN2C(=O)[C@H](CCc3ccccc32)NC(=O)C[C@H](Cc2ccc(Cl)cc2)N1    6.92
CN1CCCN[C@@H](Cc2ccc(Cl)cc2)CC(=O)N[C@H]2CCc3ccccc3N(CC(=O)N[C@H](Cc3ccc(Cl)c(CCc4ccccc4)c3)CC1=O)C2=O    6.47
CN1CCCN[C@@H](Cc2ccc([S+](C)[O-])cc2)CC(=O)N[C@H]2CCc3ccccc3N(CC(=O)N[C@H](Cc3ccc(Cl)c(Cl)c3)CC1=O)C2=O (some centres not stated)    6.11
CN1CCCN[C@@H](Cc2ccc(S(N)(=O)=O)cc2)CC(=O)N[C@H]2CCc3ccccc3N(CC(=O)N[C@H](Cc3ccc(Cl)c(Cl)c3)CC1=O)C2=O    6.14
CN1CCCN[C@@H](Cc2ccc(Cl)cc2)CC(=O)N[C@H]2CCc3ccccc3N(CC(=O)N[C@H](Cc3ccc(Cl)c(Cl)c3)CC1=O)C2=O    6.43
CN1CCCN[C@@H](Cc2ccc(S(C)(=O)=O)cc2)CC(=O)N[C@H]2CCc3ccccc3N(CC(=O)N[C@H](Cc3ccc(Cl)c(/C=C/c4ccccc4)c3)CC1=O)C2=O    5.92
CN1CCCCCN[C@@H](Cc2ccc(Cl)cc2)CC(=O)N[C@H]2CCc3ccccc3N(CC(=O)N[C@H](Cc3ccc(Cl)c(Cl)c3)CC1=O)C2=O    6.28
CN1CCCN[C@@H](Cc2ccc(S(C)(=N)=O)cc2)CC(=O)N[C@H]2CCc3ccccc3N(CC(=O)N[C@H](Cc3ccc(Cl)c(Cl)c3)CC1=O)C2=O (some centres not stated)    6.38
C[C@@H]1CCN(C)C(=O)C[C@@H](Cc2ccc(Cl)c(Cl)c2)NC(=O)CN2C(=O)[C@H](CCc3ccccc32)NC(=O)C[C@H](Cc2ccc(Cl)cc2)N1    5.45
